Please go through the items and note down their MIC.
Tested on: Enterococcus faecalis
Experiment: Antibacterial activity against Enterococcus faecalis ATCC 7080 assessed as bacterial growth inhibition after overnight incubation by spot-on-lawn assay
Type: functional

Reported MIC of C[C@H]1NCC(=O)NNC1=O : 2 mg/mL

Reported MIC of C[C@H]1N[C@H](CCCCN)C(=O)NNC1=O : 16 mg/mL

Reported MIC of C[C@@H]1N[C@H](C)C(=O)NNC1=O : 26 mg/mL

Reported MIC of C[C@H]1N[C@@H](CCCCN)C(=O)NNC1=O : 62 mg/mL

====

Test system: Escherichia coli
Experiment: Antibacterial activity against Escherichia coli ATCC 25922 assessed as bacterial growth inhibition after overnight incubation by spot-on-lawn assay
Format: functional
readout_label: log10 MIC (log10 of the value in µg/mL)
The common logarithm of MIC in µg/mL is what is listed.

Reported log10 MIC of C[C@H]1N[C@@H](CCCCN)C(=O)NNC1=O : 2.69

Reported log10 MIC of C[C@@H]1NCC(=O)NNC1=O : 3.36

Reported log10 MIC of C[C@H]1NCC(=O)NNC1=O : 1.78

Reported log10 MIC of C[C@@H]1N[C@H](C)C(=O)NNC1=O : 3.51

Reported log10 MIC of C[C@H]1N[C@H](CCCCN)C(=O)NNC1=O : 4.49

====

Tested on: Pseudomonas aeruginosa
Assay: Antibacterial activity against Pseudomonas aeruginosa ATCC 14207 assessed as bacterial growth inhibition after overnight incubation by spot-on-lawn assay
Format: functional
Please go through the items and note down their MIC.
Number in mg/mL, nothing else.

Reported MIC of C[C@@H]1NCC(=O)NNC1=O : 38

Reported MIC of C[C@H]1N[C@@H](CCCCN)C(=O)NNC1=O : 62

Reported MIC of C[C@H]1NCC(=O)NNC1=O : 3.9

Reported MIC of C[C@@H]1N[C@H](C)C(=O)NNC1=O : 52

Just for reference, ChEMBL document CHEMBL4680061 is where these values come from.
